Each record here notes measured IC50.
tested on: HT1080 cells; experiment: Cellular assay, inhibition of 2-HG production in HT1080 cells; format: cell-based; details: Homo sapiens, HT-1080, 48 h

COMPOUND: N#Cc1ccnc(N2C(=O)OCC[C@H]2C(=O)N(c2cncc(F)c2)C(C(=O)NC2CC(F)(F)C2)c2ccccc2)c1 (stereo in doubt)
IC50: < 100 nM
--
COMPOUND: N#Cc1cccc(N(C(=O)[C@@H]2CCC(=O)N2c2nccc(C#N)n2)[C@H](C(=O)NC2CCC(F)(F)CC2)c2ccccc2Cl)c1
IC50: 100 to 500 nM
--
COMPOUND: N#Cc1ccnc(N2C(=O)CC[C@H]2C(=O)N(c2cccc(F)c2)[C@H](C(=O)NC2CC(F)(F)C2)c2c(Cl)cccc2Cl)c1 (single isomer, unassigned)
IC50: < 100 nM
--
COMPOUND: Cc1cccnc1N1C(=O)CC[C@H]1C(=O)N(c1cccc(F)c1)[C@H](C(=O)NC1CC(F)(F)C1)c1ccccc1Cl
IC50: 100 to 500 nM
--
COMPOUND: O=C(NC1CC(F)C1)[C@H](c1ccccc1Cl)N(C(=O)[C@@H]1CCC(=O)N1c1ncccn1)c1cccc(F)c1 (stereo partly drawn)
IC50: 100 to 500 nM
--
COMPOUND: Cc1cccc(N2C(=O)CC[C@H]2C(=O)N(c2cccc(F)c2)[C@H](C(=O)NC2CC(F)(F)C2)c2ccccc2Cl)n1
IC50: < 100 nM

----------
test system: U87MG cells; test: Cellular assay, inhibition of 2-HG production in U87MG cells; assay type: cell-based; conditions: Homo sapiens, U-87 MG, 48 h
pIC50: −log10 of the molar value.

STRUCTURE AS SMILES: Cc1ccc(N2C(=O)CC[C@H]2C(=O)N(c2cccc(F)c2)[C@H](C(=O)NC2CC(F)(F)C2)c2ccccc2Cl)nc1
pIC50: 6.30 to 7.00
//
STRUCTURE AS SMILES: N#Cc1ccnc(N2C(=O)[C@H](O)C[C@H]2C(=O)N(c2cc(F)cc(F)c2)[C@H](C(=O)NC2CC(F)(F)C2)c2ccccc2Cl)c1
pIC50: > 7.00
//
STRUCTURE AS SMILES: N#Cc1ccnc(N2C(=O)OCC[C@H]2C(=O)N(c2cc(F)cc(F)c2)[C@H](C(=O)NC2CCC(F)(F)CC2)c2ccccc2Cl)n1
pIC50: > 7.00

----------
target: IDH1 R132C (Homo sapiens (Human), UniProt O75874, R132C); assay: In vitro NADPH depletion assay for IDH1m R132C inhibitors; conditions: IDH1 R132C enzyme, read-out: IDH R132C IC50
Sequence (O75874 whole entry R132C): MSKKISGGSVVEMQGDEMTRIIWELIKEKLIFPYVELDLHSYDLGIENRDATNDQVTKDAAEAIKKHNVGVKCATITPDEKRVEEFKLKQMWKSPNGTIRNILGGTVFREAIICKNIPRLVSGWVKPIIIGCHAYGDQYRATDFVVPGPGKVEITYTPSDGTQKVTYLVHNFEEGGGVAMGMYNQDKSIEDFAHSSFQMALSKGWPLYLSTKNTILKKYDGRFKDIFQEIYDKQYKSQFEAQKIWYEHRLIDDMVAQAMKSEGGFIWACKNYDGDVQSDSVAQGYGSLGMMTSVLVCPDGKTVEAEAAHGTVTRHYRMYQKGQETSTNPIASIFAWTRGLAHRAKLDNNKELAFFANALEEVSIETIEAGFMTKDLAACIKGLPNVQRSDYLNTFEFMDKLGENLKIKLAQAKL
pIC50: −log10 of the molar value.
VALUE TYPE: pIC50

STRUCTURE AS SMILES: O=C(NC1CC(F)(F)C1)[C@H](c1ccccc1Cl)N(C(=O)[C@@H]1CCC(=O)N1c1ccncn1)c1cccc(F)c1
SUBJECT OF TEST: IDH1 R132C (Homo sapiens (Human), UniProt O75874, R132C)
ASSAY RESULT: 6.30 to 7.00
//
STRUCTURE AS SMILES: N#Cc1ccnc(N2C(=O)CC[C@H]2C(=O)N(c2cc(F)cc(F)c2)[C@H](C(=O)NC2CC(F)(F)C2)c2ccccc2F)c1
SUBJECT OF TEST: IDH1 R132C (Homo sapiens (Human), UniProt O75874, R132C)
ASSAY RESULT: > 7.00
//
STRUCTURE AS SMILES: O=C(NC1CC(F)(F)C1)[C@H](c1ccccc1Cl)N(C(=O)[C@@H]1CCC(=O)N1c1ccccn1)c1cccc(F)c1
SUBJECT OF TEST: IDH1 R132C (Homo sapiens (Human), UniProt O75874, R132C)
ASSAY RESULT: > 7.00
//
STRUCTURE AS SMILES: N#Cc1cccc(N2C(=O)OC[C@H]2C(=O)N(c2cccc3cn[nH]c23)[C@H](C(=O)NC2CCC(F)(F)CC2)c2ccccc2Cl)c1
SUBJECT OF TEST: IDH1 R132C (Homo sapiens (Human), UniProt O75874, R132C)
ASSAY RESULT: > 7.00

Origin of the recorded values: patent US10689414B2
